assay summary: single-dose brain PK and brain distribution
Type: in vivo, C57BL/6 mice
measurement parameters: C57BL/6, brain, po; p.o. 10 mg/kg; mouse
endpoint label: MRT (h)
Reply with just the number (in h).

[ask] Please supply the value of reported MRT for the item CCCCCCCCCCCCC/C=C/[C@@H](O)[C@H](CO)NC(C)=O
[reply] 8.64

* * *

tested on: CYP 2E1 (Homo sapiens, UniProt P05181)
Construct: from tissue; host or cells: human liver microsomes
Sequence (P05181 whole entry): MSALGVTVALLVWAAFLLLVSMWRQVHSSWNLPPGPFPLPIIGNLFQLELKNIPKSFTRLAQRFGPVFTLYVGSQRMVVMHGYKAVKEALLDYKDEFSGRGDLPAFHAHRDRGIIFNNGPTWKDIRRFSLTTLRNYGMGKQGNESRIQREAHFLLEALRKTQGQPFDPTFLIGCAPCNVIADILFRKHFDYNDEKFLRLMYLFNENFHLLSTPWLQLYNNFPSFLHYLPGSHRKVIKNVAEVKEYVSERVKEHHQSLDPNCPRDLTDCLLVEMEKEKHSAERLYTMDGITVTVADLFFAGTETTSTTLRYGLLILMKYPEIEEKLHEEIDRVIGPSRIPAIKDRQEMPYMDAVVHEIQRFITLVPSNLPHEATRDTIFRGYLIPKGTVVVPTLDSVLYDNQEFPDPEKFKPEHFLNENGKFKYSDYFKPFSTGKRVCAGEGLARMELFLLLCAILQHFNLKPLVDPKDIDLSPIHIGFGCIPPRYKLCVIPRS
assay summary: cytochrome P450 inhibition in human liver microsomes
Type: in vitro ADME
measurement parameters: human, liver microsomes, pH 7.4, probe chlorzoxazone, N-AS 25 µM, read-out: % of control at 25 µM
endpoint label: activity at 15 min, 25 µM (%)
Reply with just the number (in %).

[ask] Write activity at 15 min, 25 µM of CCCCCCCCCCCCC/C=C/[C@@H](O)[C@H](CO)NC(C)=O [N-AS] ; system used: CYP 2E1 (Homo sapiens, UniProt P05181)
[reply] 84

* * *

assay summary: single-dose plasma PK
Type: in vivo, C57BL/6 mice
measurement parameters: C57BL/6, plasma, iv; i.v. 1 mg/kg; mouse
endpoint label: half-life (h)
Reply with just the number (in h).

[ask] Please supply the value of reported half-life for the item CCCCCCCCCCCCC/C=C/[C@@H](O)[C@H](CO)NC(C)=O
[reply] 3.45

* * *

assay summary: single-dose plasma PK
Type: in vivo, C57BL/6 mice
measurement parameters: C57BL/6, plasma, po; p.o. 10 mg/kg; mouse
endpoint label: MRT (h)
Reply with just the number (in h).

[ask] Please supply the value of reported MRT for the item CCCCCCCCCCCCC/C=C/[C@@H](O)[C@H](CO)NC(C)=O [N-AS]
[reply] 3.1

* * *

assay summary: single-dose brain PK and brain distribution
Type: in vivo, C57BL/6 mice
measurement parameters: C57BL/6, brain, iv; i.v. 1 mg/kg; mouse
endpoint label: half-life (h)
Reply with just the number (in h).

[ask] Please supply the value of reported half-life for the item CCCCCCCCCCCCC/C=C/[C@@H](O)[C@H](CO)NC(C)=O
[reply] 6.31

* * *

assay summary: single-dose plasma PK
Format: in vivo, C57BL/6 mice
measurement parameters: C57BL/6, plasma, iv; i.v. 1 mg/kg; mouse; read-out: AUCinf (Plasma)
endpoint label: AUC(0-inf) (ng·h/mL)
Reply with just the number (in ng·h/mL).

[ask] Please supply the value of reported AUC(0-inf) for the item CCCCCCCCCCCCC/C=C/[C@@H](O)[C@H](CO)NC(C)=O
[reply] 667

* * *

tested on: CYP 2C19 (Homo sapiens)
Construct: from tissue; host or cells: human liver microsomes
Sequence (P33261 whole entry): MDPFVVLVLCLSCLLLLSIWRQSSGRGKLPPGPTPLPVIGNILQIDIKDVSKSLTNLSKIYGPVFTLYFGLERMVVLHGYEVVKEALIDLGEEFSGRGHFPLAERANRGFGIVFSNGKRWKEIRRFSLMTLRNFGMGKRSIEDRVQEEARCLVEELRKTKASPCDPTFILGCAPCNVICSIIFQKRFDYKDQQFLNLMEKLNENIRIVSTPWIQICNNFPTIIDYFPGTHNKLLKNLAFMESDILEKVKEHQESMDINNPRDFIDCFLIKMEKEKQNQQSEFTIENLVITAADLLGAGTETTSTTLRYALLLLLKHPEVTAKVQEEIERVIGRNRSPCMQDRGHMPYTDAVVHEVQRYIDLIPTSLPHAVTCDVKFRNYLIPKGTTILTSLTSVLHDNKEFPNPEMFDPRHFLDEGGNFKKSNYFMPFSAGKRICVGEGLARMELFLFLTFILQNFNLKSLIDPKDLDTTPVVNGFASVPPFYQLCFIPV
assay summary: cytochrome P450 inhibition in human liver microsomes
Format: in vitro ADME
measurement parameters: human, liver microsomes, pH 7.4, probe mephenytoin, N-AS 25 µM, read-out: % of control at 25 µM
endpoint label: activity at 15 min, 25 µM

[ask] Please supply the value of reported activity at 15 min, 25 µM for the item CCCCCCCCCCCCC/C=C/[C@@H](O)[C@H](CO)NC(C)=O
[reply] 79.6%

* * *

assay summary: microsomal stability
Type: in vitro ADME
measurement parameters: pH 7.4; Mouse liver microsomes
endpoint label: half-life at 1 µM (min)
Reply with just the number (in min).

[ask] Please supply the value of reported half-life at 1 µM for the item CCCCCCCCCCCCC/C=C/[C@@H](O)[C@H](CO)NC(C)=O [N-AS]
[reply] 54

* * *

tested on: CYP 2B6 (Homo sapiens, UniProt P20813)
Construct: from tissue; host or cells: human liver microsomes
Sequence (P20813 whole entry): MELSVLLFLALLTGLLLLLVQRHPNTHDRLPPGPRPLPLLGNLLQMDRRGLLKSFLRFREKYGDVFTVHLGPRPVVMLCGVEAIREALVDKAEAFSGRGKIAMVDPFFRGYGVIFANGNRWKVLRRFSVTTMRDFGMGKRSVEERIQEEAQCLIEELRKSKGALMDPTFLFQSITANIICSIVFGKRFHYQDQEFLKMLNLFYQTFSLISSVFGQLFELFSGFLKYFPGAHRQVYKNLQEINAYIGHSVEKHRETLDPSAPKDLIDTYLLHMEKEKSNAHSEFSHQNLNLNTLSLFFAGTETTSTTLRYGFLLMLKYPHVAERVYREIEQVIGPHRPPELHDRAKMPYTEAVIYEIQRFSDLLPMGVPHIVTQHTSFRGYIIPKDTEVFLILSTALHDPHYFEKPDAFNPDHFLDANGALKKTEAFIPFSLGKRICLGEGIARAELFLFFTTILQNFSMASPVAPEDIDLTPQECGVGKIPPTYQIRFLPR
assay summary: cytochrome P450 inhibition in human liver microsomes
Type: in vitro ADME
measurement parameters: human, liver microsomes, pH 7.4, probe bupropion, N-AS 25 µM, read-out: % of control at 25 µM
endpoint label: activity at 15 min, 25 µM (%)
Reply with just the number (in %).

[ask] Please supply the value of reported activity at 15 min, 25 µM for the item CCCCCCCCCCCCC/C=C/[C@@H](O)[C@H](CO)NC(C)=O
[reply] 92.7

* * *

tested on: CYP 2C9 (Homo sapiens, UniProt P11712)
Construct: from tissue; host or cells: human liver microsomes
Sequence (P11712 whole entry): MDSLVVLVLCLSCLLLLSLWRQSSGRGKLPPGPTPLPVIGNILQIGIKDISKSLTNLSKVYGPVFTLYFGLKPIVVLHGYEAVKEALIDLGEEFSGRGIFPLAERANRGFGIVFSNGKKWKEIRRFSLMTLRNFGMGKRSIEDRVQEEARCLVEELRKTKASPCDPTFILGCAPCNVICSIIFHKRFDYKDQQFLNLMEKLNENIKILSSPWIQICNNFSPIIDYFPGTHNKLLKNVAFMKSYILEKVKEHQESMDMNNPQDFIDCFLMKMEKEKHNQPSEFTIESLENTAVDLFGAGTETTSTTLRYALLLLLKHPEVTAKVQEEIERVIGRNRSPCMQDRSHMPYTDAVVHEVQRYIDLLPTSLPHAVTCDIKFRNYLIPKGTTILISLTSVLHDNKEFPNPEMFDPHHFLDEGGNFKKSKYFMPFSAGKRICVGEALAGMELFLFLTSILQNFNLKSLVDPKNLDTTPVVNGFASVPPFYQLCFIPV
assay summary: cytochrome P450 inhibition in human liver microsomes
Format: in vitro ADME
measurement parameters: human, liver microsomes, pH 7.4, probe diclofenac, N-AS 25 µM, read-out: % of control at 25 µM
endpoint label: activity at 15 min, 25 µM (%)
Reply with just the number (in %).

[ask] Please supply the value of reported activity at 15 min, 25 µM for the item CCCCCCCCCCCCC/C=C/[C@@H](O)[C@H](CO)NC(C)=O
[reply] 95.5

* * *

assay summary: single-dose plasma PK
Type: in vivo, C57BL/6 mice
measurement parameters: C57BL/6, plasma, po; p.o. 10 mg/kg; mouse
endpoint label: Tmax (min)
Reply with just the number (in min).

[ask] Please supply the value of reported Tmax for the item CCCCCCCCCCCCC/C=C/[C@@H](O)[C@H](CO)NC(C)=O
[reply] 15

* * *

assay summary: microsomal stability
Type: in vitro ADME
measurement parameters: pH 7.4; Human liver microsomes
endpoint label: half-life at 1 µM (min)
Reply with just the number (in min).

[ask] Please supply the value of reported half-life at 1 µM for the item CCCCCCCCCCCCC/C=C/[C@@H](O)[C@H](CO)NC(C)=O
[reply] 36

* * *

assay summary: single-dose plasma PK
Assay type: in vivo, C57BL/6 mice
measurement parameters: C57BL/6, plasma, iv; i.v. 1 mg/kg; mouse; read-out: AUClast (Plasma)
endpoint label: AUC(0-t) (ng·h/mL)
Reply with just the number (in ng·h/mL).

[ask] Please supply the value of reported AUC(0-t) for the item CCCCCCCCCCCCC/C=C/[C@@H](O)[C@H](CO)NC(C)=O
[reply] 665

* * *

tested on: CYP 3A4 (Homo sapiens, UniProt P08684)
Construct: from tissue; host or cells: human liver microsomes
Sequence (P08684 whole entry): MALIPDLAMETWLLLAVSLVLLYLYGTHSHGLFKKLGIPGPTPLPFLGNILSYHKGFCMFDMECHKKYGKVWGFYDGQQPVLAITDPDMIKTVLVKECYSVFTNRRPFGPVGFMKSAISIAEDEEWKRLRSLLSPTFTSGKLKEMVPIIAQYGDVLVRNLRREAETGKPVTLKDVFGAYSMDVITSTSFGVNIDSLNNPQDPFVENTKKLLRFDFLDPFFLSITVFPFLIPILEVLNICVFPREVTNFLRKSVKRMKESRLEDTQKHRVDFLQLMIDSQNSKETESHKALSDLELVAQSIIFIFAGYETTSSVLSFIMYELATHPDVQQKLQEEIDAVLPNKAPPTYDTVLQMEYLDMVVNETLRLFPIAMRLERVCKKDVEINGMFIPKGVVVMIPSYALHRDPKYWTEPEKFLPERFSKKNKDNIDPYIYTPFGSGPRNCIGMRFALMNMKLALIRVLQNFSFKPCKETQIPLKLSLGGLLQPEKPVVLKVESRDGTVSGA
assay summary: cytochrome P450 inhibition in human liver microsomes
Type: in vitro ADME
measurement parameters: human, liver microsomes, pH 7.4, probe midazolam, N-AS 25 µM, read-out: % of control at 25 µM
endpoint label: activity at 15 min, 25 µM (%)
Reply with just the number (in %).

[ask] Please supply the value of reported activity at 15 min, 25 µM for the item CCCCCCCCCCCCC/C=C/[C@@H](O)[C@H](CO)NC(C)=O
[reply] 114

* * *

assay summary: single-dose plasma PK
Format: in vivo, C57BL/6 mice
measurement parameters: C57BL/6, plasma, po; p.o. 10 mg/kg; mouse
endpoint label: half-life
The reply must contain the numeric value and, after it, the unit.

[ask] Please supply the value of reported half-life for the item CCCCCCCCCCCCC/C=C/[C@@H](O)[C@H](CO)NC(C)=O
[reply] 3.68 h

* * *

assay summary: single-dose plasma PK
Type: in vivo, C57BL/6 mice
measurement parameters: C57BL/6, plasma, po; p.o. 10 mg/kg; mouse; read-out: AUClast (Plasma)
endpoint label: AUC(0-t) (ng·h/mL)
Reply with just the number (in ng·h/mL).

[ask] Please supply the value of reported AUC(0-t) for the item CCCCCCCCCCCCC/C=C/[C@@H](O)[C@H](CO)NC(C)=O
[reply] 545

* * *

assay summary: single-dose brain PK and brain distribution
Assay type: in vivo, C57BL/6 mice
measurement parameters: C57BL/6, brain, po; p.o. 10 mg/kg; mouse; read-out: AUClast (Brain)
endpoint label: AUC(0-t) (ng·h/mL)
Reply with just the number (in ng·h/mL).

[ask] Please supply the value of reported AUC(0-t) for the item CCCCCCCCCCCCC/C=C/[C@@H](O)[C@H](CO)NC(C)=O
[reply] 895

* * *

assay summary: single-dose brain PK and brain distribution
Format: in vivo, C57BL/6 mice
measurement parameters: C57BL/6, brain, iv; i.v. 1 mg/kg; mouse; read-out: AUCinf (Brain)
endpoint label: AUC(0-inf)

[ask] Please supply the value of reported AUC(0-inf) for the item CCCCCCCCCCCCC/C=C/[C@@H](O)[C@H](CO)NC(C)=O [N-AS]
[reply] 1440 ng·h/mL

* * *

assay summary: single-dose brain PK and brain distribution
Type: in vivo, C57BL/6 mice
measurement parameters: C57BL/6, brain, po; p.o. 10 mg/kg; mouse
endpoint label: Kp
# output: bare number, no unit

[ask] Please supply the value of reported Kp for the item CCCCCCCCCCCCC/C=C/[C@@H](O)[C@H](CO)NC(C)=O
[reply] 3.18

* * *

tested on: CYP 1A2 (Homo sapiens, UniProt P05177)
Construct: from tissue; host or cells: human liver microsomes
Sequence (P05177 whole entry): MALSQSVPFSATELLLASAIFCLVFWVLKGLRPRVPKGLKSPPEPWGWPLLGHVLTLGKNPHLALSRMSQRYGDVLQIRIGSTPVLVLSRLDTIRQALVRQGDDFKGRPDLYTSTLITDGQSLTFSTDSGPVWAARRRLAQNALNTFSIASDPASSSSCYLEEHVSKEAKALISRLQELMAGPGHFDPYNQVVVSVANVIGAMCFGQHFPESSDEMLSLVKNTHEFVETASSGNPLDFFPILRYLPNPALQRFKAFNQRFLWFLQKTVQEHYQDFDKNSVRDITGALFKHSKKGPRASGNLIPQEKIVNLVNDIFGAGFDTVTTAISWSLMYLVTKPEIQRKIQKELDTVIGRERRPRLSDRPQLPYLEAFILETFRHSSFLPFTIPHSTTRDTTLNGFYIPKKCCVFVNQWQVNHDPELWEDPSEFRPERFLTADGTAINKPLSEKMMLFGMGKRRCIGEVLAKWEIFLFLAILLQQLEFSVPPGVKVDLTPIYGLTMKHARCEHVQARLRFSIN
assay summary: cytochrome P450 inhibition in human liver microsomes
Format: in vitro ADME
measurement parameters: human, liver microsomes, pH 7.4, probe phenacetin, N-AS 25 µM, read-out: % of control at 25 µM
endpoint label: activity at 15 min, 25 µM (%)
Reply with just the number (in %).

[ask] Please supply the value of reported activity at 15 min, 25 µM for the item CCCCCCCCCCCCC/C=C/[C@@H](O)[C@H](CO)NC(C)=O
[reply] 94.6

Recorded values, source paper PMC7217877.
